Source: patent US20240246967A1

Target: Axl (Homo sapiens)
Sequence (P30530 26-894): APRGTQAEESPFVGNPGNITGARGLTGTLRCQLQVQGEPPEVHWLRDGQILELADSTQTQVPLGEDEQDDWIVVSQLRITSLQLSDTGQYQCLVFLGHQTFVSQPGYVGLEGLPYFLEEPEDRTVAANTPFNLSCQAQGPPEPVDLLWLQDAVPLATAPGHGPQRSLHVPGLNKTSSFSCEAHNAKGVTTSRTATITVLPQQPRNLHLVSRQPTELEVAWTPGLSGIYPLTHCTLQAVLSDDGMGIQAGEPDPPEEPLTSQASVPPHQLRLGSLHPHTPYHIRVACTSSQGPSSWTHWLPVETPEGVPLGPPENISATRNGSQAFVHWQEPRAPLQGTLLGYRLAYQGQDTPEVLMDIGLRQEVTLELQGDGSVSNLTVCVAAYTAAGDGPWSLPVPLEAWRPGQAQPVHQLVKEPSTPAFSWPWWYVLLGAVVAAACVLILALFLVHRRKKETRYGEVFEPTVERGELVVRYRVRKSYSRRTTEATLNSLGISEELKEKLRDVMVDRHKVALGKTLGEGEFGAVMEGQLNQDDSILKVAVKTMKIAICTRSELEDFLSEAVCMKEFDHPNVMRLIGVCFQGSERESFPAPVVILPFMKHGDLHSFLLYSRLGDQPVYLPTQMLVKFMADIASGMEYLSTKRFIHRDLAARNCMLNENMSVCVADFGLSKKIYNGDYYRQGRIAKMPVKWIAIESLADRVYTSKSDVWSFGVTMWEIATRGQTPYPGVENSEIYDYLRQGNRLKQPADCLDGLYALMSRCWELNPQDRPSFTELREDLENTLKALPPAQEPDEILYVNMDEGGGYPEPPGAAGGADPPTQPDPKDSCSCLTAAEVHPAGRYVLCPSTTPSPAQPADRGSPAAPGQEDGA
Test: Axl NanoBRET intracellular kinase assay (intracellular binding, Cell Binding)
Parameters: host or cells: HEK-293
Details: HEK-293 cells transfected with Axl-NanoLuc fusion vector; 0.35 μM K-5 NanoBRET tracer
Collected IC50 values appear next to each entry.

Recorded results for 3 compounds are shown here.
Compound	IC50
Cc1cc(-c2n[nH]c3ncc(-c4ccc5c(c4)CC[C@@H](N4CCCC4)CC5)cc23)cc(Cl)c1C(=O)N1CCNCC1 [Example 56]	< 100 nM
O=C1OCCN1c1ccc(-c2n[nH]c3ncc(-c4ccc5c(c4)CC[C@@H](N4C6COCC4C6)CC5)cc23)cc1 [Example 121]	< 100 nM
COCCNCc1ccc(-c2n[nH]c3ncc(-c4ccc5c(c4)CCC(C)(N4CCC[C@H]4C)CC5)cc23)cc1 (stereo partly shown) [Example 108]	100 to 1000 nM

Let us examine a further case.
Form: compound = C[C@@H]1CCCN1C1(C)CCc2ccc(-c3cnc4[nH]nc(-c5ccc(C(=O)NC6CCOCC6)cc5)c4c3)cc2CC1 (stereo partly shown) [Example 88] ; IC50 = < 100 nM
